System: Es-2
experiment.notes: Primary qHTS to identify gynecologic anti-cancer compounds using libraries of approved drugs and bioactive compounds (AID 1345084); also: nearly all actives have a fitted effect of over 55% in size
measurement.parameters: Gynecologic cancer cell panel viability, ATPlite luminescence, 48 h; series mostly up to 57.5 µM
Inconclusive results are not listed. The source made the active and inactive calls. Calls follow the shape of the dose curve; as a rule, active = well fitted cell-killing curve with a large enough effect; inconclusive = small, poorly fitted or top-dose-only effect, or effect the other way; inactive = flat fitted curve, though single readings scatter.
assay.endpoint: outcome

Previously resolved entries follow.
CCN(CC)Cc1cccc(/C=C/c2nc3ccc(F)cc3c(=O)n2-c2ccccc2Cl)n1 :: inactive
OC(CNCCc1c[nH]c2ccccc12)Cn1c2ccccc2c2ccccc21 (centres undefined) :: inactive
O=C1c2c(O[C@@H]3O[C@H](CO)[C@@H](O)[C@H](O)[C@H]3O)cc(O)cc2OC1(O)Cc1ccc(O)cc1 (some centres undefined) :: inactive
CN(Cc1ccc(C(=O)O)cc1)c1ccc(OCc2c(-c3c(Cl)cccc3Cl)noc2C2CC2)nc1C(F)(F)F :: inactive
Cc1ccn(-c2cc(Cl)ccc2[C@@H](Oc2cc(-c3ccc(C[C@H](N)C(=O)O)cc3)nc(N)n2)C(F)(F)F)n1 :: inactive
Cn1cc(-c2cnc3ccc4ccc(CS(=O)(=O)NCc5ccccn5)cc4c(=O)c3c2)cn1 :: inactive
C=C1[C@@H](C)[C@H]2[C@H](Cc3c[nH]c4ccccc34)NC(=O)[C@]23C(=O)/C=C/C(=O)[C@H](O)/C(C)=C\[C@@H](C)C/C=C/[C@H]3[C@@H]1O :: inactive
CN(CC(=O)N(Cc1ccc(C2CCCCC2)cc1)c1ccc(C(=O)O)cc1)S(=O)(=O)c1c(F)c(F)c(F)c(F)c1F :: inactive

QUERY: Could you share which outcome value was measured for `CO[C@@H]1[C@@H](O[C@H]2O[C@@H](C)[C@H](O[C@@H]3C[C@](C)(O)[C@H](O)[C@@H](C)O3)[C@@H](N(C)C)[C@@H]2O)[C@@H](CC=O)C[C@@H](C)[C@@H](O[C@H]2CC[C@H](N(C)C)[C@H](C)O2)/C=C/C=C/C[C@@H](C)OC(=O)C[C@H]1O` ?
RESULT: inactive

QUERY: Could you share which outcome value was measured for `COc1ccc2c(c1)CN(C(=O)CCN1CCC(Cc3ccccc3)CC1)CCS2` ?
RESULT: inactive

QUERY: Could you share which outcome value was measured for `COc1ccccc1NC(=O)Nc1ccc2ccccc2c1` ?
RESULT: inactive

QUERY: Could you share which outcome value was measured for Cc1ccc(C2(COC(=O)C(C)C)CO2)c(OC(=O)C(C)C)c1 (centres undefined) ?
RESULT: inactive

QUERY: Could you share which outcome value was measured for `CC1=CC(=O)[C@@]2(C(C)C)C[C@@H]12` ?
RESULT: inactive

QUERY: Could you share which outcome value was measured for `Cc1ccccc1C(=O)Nc1ccc(C(=O)N2CCC[C@@H](O)c3cc(Cl)ccc32)c(C)c1` ?
RESULT: inactive

QUERY: Could you share which outcome value was measured for CC(C)c1ccc(NC(=O)C(c2ccccc2)N(C)C(=O)Cc2c[nH]c3ccccc23)cc1 (centres undefined) ?
RESULT: inactive
